# TESTED_SYSTEM: PIK3CA (human) (UniProt P42336)
# Sequence (P42336 whole entry, looked up): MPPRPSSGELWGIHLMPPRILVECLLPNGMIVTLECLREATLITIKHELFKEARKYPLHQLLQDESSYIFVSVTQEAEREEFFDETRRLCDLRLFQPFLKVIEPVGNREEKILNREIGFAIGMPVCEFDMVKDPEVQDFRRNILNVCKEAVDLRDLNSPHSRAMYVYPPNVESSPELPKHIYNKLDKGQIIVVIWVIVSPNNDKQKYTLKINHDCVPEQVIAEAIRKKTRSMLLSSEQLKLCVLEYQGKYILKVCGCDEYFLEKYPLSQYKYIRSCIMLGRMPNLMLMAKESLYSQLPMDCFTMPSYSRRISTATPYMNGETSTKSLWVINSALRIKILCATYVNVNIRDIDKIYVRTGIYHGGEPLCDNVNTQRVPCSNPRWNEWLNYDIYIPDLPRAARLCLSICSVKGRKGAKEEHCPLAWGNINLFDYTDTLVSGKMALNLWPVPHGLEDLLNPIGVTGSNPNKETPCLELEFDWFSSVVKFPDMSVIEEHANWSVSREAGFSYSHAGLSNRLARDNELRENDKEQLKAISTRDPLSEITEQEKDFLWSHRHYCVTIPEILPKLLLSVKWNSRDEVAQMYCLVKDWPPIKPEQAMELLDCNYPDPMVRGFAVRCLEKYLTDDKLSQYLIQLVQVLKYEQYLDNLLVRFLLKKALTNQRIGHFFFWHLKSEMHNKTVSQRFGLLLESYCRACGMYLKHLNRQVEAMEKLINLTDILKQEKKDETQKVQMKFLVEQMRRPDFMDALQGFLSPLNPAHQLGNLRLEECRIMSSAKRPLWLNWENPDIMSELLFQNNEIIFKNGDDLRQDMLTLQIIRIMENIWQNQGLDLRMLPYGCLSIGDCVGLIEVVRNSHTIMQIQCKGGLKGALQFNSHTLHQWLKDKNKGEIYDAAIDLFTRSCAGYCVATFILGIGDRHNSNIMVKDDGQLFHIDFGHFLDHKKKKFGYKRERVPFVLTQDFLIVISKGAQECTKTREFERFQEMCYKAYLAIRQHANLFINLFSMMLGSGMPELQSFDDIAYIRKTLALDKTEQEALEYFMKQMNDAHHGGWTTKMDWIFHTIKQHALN
pIC50: −log10 of the molar value.
This section presents molecules with their documented pIC50 values.

Field: example entries. Status: answers known.
- MOLECULE: "CCN(CC)C(=O)c1cc(-c2ccc3nc(NC(C)=O)cn3c2)cnc1N"
  pIC50: "> 6.00"
- MOLECULE: "CC(=O)Nc1nc2c(F)cc(-c3cnc(N)c(C(F)(F)F)c3)cc2s1"
  pIC50: "> 6.00"
- MOLECULE: "COC[C@@H]1CCCN1C(=O)Nc1cn2cc(-c3cnc(N)c(C(F)(F)F)c3)ccc2n1"
  pIC50: "> 6.00"
- MOLECULE: "COC(=O)CCCC(=O)Nc1cn2nc(-c3cnc(N)c(C(F)(F)F)c3)ccc2n1"
  pIC50: "> 6.00"
- MOLECULE: "COc1nc(-c2cc(F)c3nc(NC(C)=O)cn3c2)cnc1N"
  pIC50: "> 6.00"
- MOLECULE: "NC(=O)N1CC[C@H]1C(=O)Nc1cn2cc(-c3cnc(N)c(C(F)(F)F)c3)ccc2n1"
  pIC50: "> 6.00"

Endpoint output: pIC50 of CC(=O)N1CCC[C@H]1C(=O)Nc1cn2cc(-c3cnc(N)c(C(F)(F)F)c3)ccc2n1 . Value?
> 6.00

What about this molecule? CC(C)(C)OC(=O)N1CC[C@@H](OCC(=O)Nc2cn3nc(-c4cnc(N)c(C(F)(F)F)c4)ccc3n2)C1
> 6.00

Then Nc1ncc(-c2ccc3nc(NC(=O)CN4CCCCC4)cn3n2)cc1C(F)(F)F ?
> 6.00

Okay, and CC(=O)Nc1nc2ccc(-c3cnc(N)c(CN(C)C)c3)cc2s1 ?
> 6.00

Please give the result for CCC(=O)Nc1cn2cc(-c3cnc(N)c(C(F)(F)F)c3)ccc2n1 too.
> 6.00

Continue with CC(=O)Nc1cn2nc(-c3cnc(N)c(CN4CCCC4)c3)ccc2n1
> 6.00

Follow-up item: Nc1ncc(-c2ccc3nc(NC(=O)CN4CCCCC4)cn3c2)nc1OCC(F)(F)F
> 6.00
